System: C. elegans
measurement context: Table S2, C. elegans SS assay, 110 μM, 0 h, averages of 4 data points
Short version: Percentage of motility inhibition 0 h at least 6% is y, less is n.

API: above_or_equal(metric=Percentage of motility inhibition 0 h, cutoff=6%) for item C=C(C)[C@H](CC=C(C)C)Cc1c(O)cc(OC)c2c1O[C@H](c1ccc(O)cc1O)[C@@H](O)C2=O [Kushenol I]
n

Does the reported Percentage of motility inhibition 0 h for NC(=O)[C@@H]1CC[C@@H]2CN1C(=O)N2OS(=O)(=O)[O-].[Na+] [Avibactam (sodium)] fall at or above the 6% mark?
n

Please tell me: is the molecule N=C(NCCCCCCNC(=N)NC(=N)Nc1ccc(Cl)cc1)NC(=N)Nc1ccc(Cl)cc1.O=C(O)[C@H](O)[C@@H](O)[C@H](O)[C@H](O)CO.O=C(O)[C@H](O)[C@@H](O)[C@H](O)[C@H](O)CO [Chlorhexidine (digluconate)] at or over 6% in terms of Percentage of motility inhibition 0 h?
y

Kindly determine if Percentage of motility inhibition 0 h recorded for COc1cc(C2Oc3ccc([C@H]4Oc5cc(O)cc(O)c5C(=O)[C@@H]4O)cc3OC2CO)ccc1O (stereo partly drawn) [Isosilybin] is above or exactly 6%.
n

Kindly determine if Percentage of motility inhibition 0 h recorded for CC(C)C1=CC(=O)[C@@](C)([C@H]2[C@H](O)C[C@@]3(C)[C@@H]4CC=C5[C@@H](CC[C@@H](O[C@@H]6OC[C@@H](O)[C@H](O)[C@H]6O[C@@H]6O[C@@H](C)[C@H](O)[C@@H](O)[C@H]6O)C5(C)C)[C@]4(C)C(=O)C[C@]23C)O1 [Picfeltarraenin IA] is above or exactly 6%.
n

I'd appreciate it if you could say whether O=C(O)[C@H]1O[C@@H](O[C@H]2[C@H](Oc3cc(O)c4c(=O)cc(-c5ccc(O)c(O)c5)oc4c3)O[C@H](C(=O)O)[C@@H](O)[C@@H]2O)[C@H](O)[C@@H](O)[C@@H]1O [Luteolin 7‐diglucuronide] has Percentage of motility inhibition 0 h at least equal to 6%.
y

Item C[C@@H]1CC[C@]2(C(=O)O[C@@H]3O[C@H](CO)[C@@H](O)[C@H](O)[C@H]3O)CC[C@]3(C)C(=CC[C@@H]4[C@@]5(C)CC[C@H](O[C@@H]6OC[C@H](O)[C@H](O)[C@H]6O)C(C)(C)[C@@H]5CC[C@]43C)[C@@H]2[C@]1(C)O [Ziyuglycoside I] with Percentage of motility inhibition 0 h of 6% or above?
n

Test whether the molecule CS(=O)(=O)O.Cc1c(O)cccc1C(=O)N[C@@H](CSc1ccccc1)[C@H](O)CN1C[C@H]2CCCC[C@H]2C[C@H]1C(=O)NC(C)(C)C [Nelfinavir (Mesylate)] records Percentage of motility inhibition 0 h of 6% or higher.
y
